target: T1, recombinant human CSF-1R (form not stated) (human, UniProt P07333 20-512, limits assumed); test: BIAcore, humanisation stage, crude cell supernatant
T1 construct: for the ELISA no species is stated; also called recombinant CSF-1R; recombinant CSF-1R protein
T1 sequence (P07333 20-512 limits assumed): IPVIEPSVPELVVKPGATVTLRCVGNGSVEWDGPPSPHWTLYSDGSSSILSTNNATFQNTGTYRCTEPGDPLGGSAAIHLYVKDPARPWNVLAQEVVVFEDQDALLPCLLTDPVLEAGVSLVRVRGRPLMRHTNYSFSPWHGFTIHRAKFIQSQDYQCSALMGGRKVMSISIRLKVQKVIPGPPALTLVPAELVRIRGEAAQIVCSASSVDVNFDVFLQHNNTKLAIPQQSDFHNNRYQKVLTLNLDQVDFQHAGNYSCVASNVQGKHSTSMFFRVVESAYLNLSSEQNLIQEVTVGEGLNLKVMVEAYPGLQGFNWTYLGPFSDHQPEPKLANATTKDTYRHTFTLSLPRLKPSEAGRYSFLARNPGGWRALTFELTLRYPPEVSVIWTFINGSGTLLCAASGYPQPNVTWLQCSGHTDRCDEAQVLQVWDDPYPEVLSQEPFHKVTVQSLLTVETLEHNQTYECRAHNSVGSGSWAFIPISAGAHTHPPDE
ENDPOINT: koff (s⁻¹)
The figure you give is taken to be in s⁻¹; do not add the unit.

Record excerpt, results attached:
969gH1gL6 (antibody, human IgG4 S228P, kappa, name in Kabat numbering, V domains shown, Humanised IgG4 (S241P)/kappa; positions are Kabat) VH: EVTLKESGPALVKPTQTLTLTCTFSGFSLTTYGMGVGWIRQPPGKALEWLANIWWDDDKYYNPSLKNRLTISKDTSKNQAVLTMTNMDPVDTATYYCARIGPIKYPTAPYRYFDFWGQGTMVTVSS VL: DIQMTQSPSSLSASVGDRVTITCLASEDIYDNLAWYQKKPGKAPKLLIYYASSLQDGVPSRFSGSGSGTDFTLTISSLQPEDFATYYCLQDSEYPWTFGGGTKVEIKR	5e-06
969gH2gL6 (antibody, human IgG4 S228P, kappa, name in Kabat numbering, V domains shown, Humanised IgG4 (S241P)/kappa; positions are Kabat; also called Ab969.g9) VH: EVTLKESGPALVKPTQTLTLTCTFSGFSLTTYGMGVGWIRQPPGKALEWLANIWWDDDKYYNPSLKNRLTISKDTSKNQVVLTMTNMDPVDTATYYCARIGPIKYPTAPYRYFDFWGQGTMVTVSS VL: DIQMTQSPSSLSASVGDRVTITCLASEDIYDNLAWYQKKPGKAPKLLIYYASSLQDGVPSRFSGSGSGTDFTLTISSLQPEDFATYYCLQDSEYPWTFGGGTKVEIKR	6.23e-06
969gH1gL5 (antibody, human IgG4 S228P, kappa, name in Kabat numbering, V domains shown, Humanised IgG4 (S241P)/kappa; positions are Kabat) VH: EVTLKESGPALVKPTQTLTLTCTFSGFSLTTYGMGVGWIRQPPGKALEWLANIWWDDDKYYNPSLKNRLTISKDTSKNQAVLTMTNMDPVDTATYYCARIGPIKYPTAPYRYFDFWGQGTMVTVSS VL: DIQMTQSPSSLSASVGDRVTITCLASEDIYDNLAWYQQKPGKAPKLLIYYASSLQDGVPSRFSGSGSGTDFTLTISSLQPEDFATYFCLQDSEYPWTFGGGTKVEIKR	6.11e-06
969gH2gL2 (antibody, human IgG4 S228P, kappa, name in Kabat numbering, V domains shown, Humanised IgG4 (S241P)/kappa; positions are Kabat) VH: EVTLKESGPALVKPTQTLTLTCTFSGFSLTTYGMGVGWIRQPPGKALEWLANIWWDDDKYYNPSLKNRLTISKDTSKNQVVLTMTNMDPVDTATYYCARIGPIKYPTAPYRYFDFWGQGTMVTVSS VL: DIQMTQSPSSLSASVGDRVTITCLASEDIYDNLAWYQQKPGKAPKLLIYYASSLQDGVPSRFSGSGSGTDYTLTISSLQPEDFATYFCLQDSEYPWTFGGGTKVEIKR	6.11e-06
969gH2gL4 (antibody, human IgG4 S228P, kappa, name in Kabat numbering, V domains shown, Humanised IgG4 (S241P)/kappa; positions are Kabat; also called Ab969.g7) VH: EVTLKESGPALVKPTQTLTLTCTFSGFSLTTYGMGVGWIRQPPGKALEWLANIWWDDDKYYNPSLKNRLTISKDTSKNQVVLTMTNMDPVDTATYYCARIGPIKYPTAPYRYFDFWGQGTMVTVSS VL: DIQMTQSPSSLSASVGDRVTITCLASEDIYDNLAWYQKKPGKAPKLLIYYASSLQDGVPSRFSGSGSGTDYTLTISSLQPEDFATYYCLQDSEYPWTFGGGTKVEIKR	9.64e-06

Name the recorded koff for 969gH1gL2 (antibody, human IgG4 S228P, kappa, name in Kabat numbering, V domains shown, Humanised IgG4 (S241P)/kappa; positions are Kabat) VH: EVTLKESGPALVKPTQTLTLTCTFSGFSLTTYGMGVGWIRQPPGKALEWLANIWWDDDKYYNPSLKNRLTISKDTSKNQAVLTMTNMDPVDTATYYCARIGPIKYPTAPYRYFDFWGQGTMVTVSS VL: DIQMTQSPSSLSASVGDRVTITCLASEDIYDNLAWYQQKPGKAPKLLIYYASSLQDGVPSRFSGSGSGTDYTLTISSLQPEDFATYFCLQDSEYPWTFGGGTKVEIKR .
5e-06

Entry 969gH2gL8 (antibody, human IgG4 S228P, kappa, name in Kabat numbering, V domains shown, Humanised IgG4 (S241P)/kappa, no donor residues; position is Kabat; also called Ab969.g4) VH: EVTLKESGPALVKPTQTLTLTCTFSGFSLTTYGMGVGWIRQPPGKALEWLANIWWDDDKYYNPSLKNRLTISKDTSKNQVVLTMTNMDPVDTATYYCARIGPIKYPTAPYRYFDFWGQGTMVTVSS VL: DIQMTQSPSSLSASVGDRVTITCLASEDIYDNLAWYQQKPGKAPKLLIYYASSLQDGVPSRFSGSGSGTDFTLTISSLQPEDFATYYCLQDSEYPWTFGGGTKVEIKR : reported koff = ?
5e-06

Value lookup for koff; key = chimeric antibody 969 (rat variable regions, human gamma-4 heavy chain constant region and human kappa chain constant region) (antibody, human IgG4, V domains shown, Alexa-488 label in the cell-based affinity assay; not carried by the letters., Full-length human IgG4 (S241P)/kappa chimeric; also called Ab969) VH: QVTLKESGPGILQPSQTLSLTCTFSGFSLTTYGMGVGWIRQPSGKGLEWLANIWWDDDKYYNPSLKNRLTISKDTSNNQAFLKLTNVHTSDSATYYCARIGPIKYPTAPYRYFDFWGPGTMVTVSS VL: DIQMTQSPASLSASLGETVSIECLASEDIYDNLAWYQKKPGKSPHLLIYYASSLQDGVPSRFSGSGSGTQYSLKINSLESEDAATYFCLQDSEYPWTFGGGTKLELKR
7.99e-06

Consider the binder shown here: 969gH2gL1 (antibody, human IgG4 S228P, kappa, name in Kabat numbering, V domains shown, Humanised IgG4 (S241P)/kappa; positions are Kabat; also called Ab969.g6) VH: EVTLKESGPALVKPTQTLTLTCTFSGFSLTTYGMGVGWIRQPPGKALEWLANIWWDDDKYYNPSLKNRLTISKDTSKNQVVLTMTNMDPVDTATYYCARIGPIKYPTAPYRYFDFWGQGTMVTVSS VL: DIQMTQSPSSLSASVGDRVTITCLASEDIYDNLAWYQKKPGKAPKLLIYYASSLQDGVPSRFSGSGSGTDYTLTISSLQPEDFATYFCLQDSEYPWTFGGGTKVEIKR What is its recorded koff?
5.23e-06

Which value of koff has been reported for 969gH2gL5 (antibody, human IgG4 S228P, kappa, name in Kabat numbering, V domains shown, Humanised IgG4 (S241P)/kappa; positions are Kabat) VH: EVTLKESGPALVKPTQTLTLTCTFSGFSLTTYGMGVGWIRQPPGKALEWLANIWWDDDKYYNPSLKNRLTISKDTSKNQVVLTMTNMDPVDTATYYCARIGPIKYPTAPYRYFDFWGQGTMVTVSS VL: DIQMTQSPSSLSASVGDRVTITCLASEDIYDNLAWYQQKPGKAPKLLIYYASSLQDGVPSRFSGSGSGTDFTLTISSLQPEDFATYFCLQDSEYPWTFGGGTKVEIKR in the records?
5e-06

What value of koff has been recorded for this entry: 969gH1gL8 (antibody, human IgG4 S228P, kappa, name in Kabat numbering, V domains shown, Humanised IgG4 (S241P)/kappa; positions are Kabat) VH: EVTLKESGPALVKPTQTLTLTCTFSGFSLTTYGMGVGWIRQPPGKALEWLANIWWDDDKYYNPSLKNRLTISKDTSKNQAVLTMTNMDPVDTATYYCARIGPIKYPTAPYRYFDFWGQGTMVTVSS VL: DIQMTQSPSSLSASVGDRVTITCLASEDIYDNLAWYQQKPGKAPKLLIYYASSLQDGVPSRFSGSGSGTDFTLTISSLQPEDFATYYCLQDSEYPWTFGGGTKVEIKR
5e-06
